molecular target: T1, recombinant cynomolgus CFD, His-tagged (cynomolgus); assay: SPR MX96
T1 construct: also called rcyCFD-His; recombinant Cyno-CFD
Assay Endpoint: pKd
In plain terms, pKd is the concentration in mol/L turned into minus its base-10 logarithm.

See these solved cases before continuing.
>>> result("KCD133 (antibody, V domains shown) VH: EVQLVESGGGLLQPKGSLKLSCAASGFTFNTYAMNWVRQAPGKGLEWVARIRSKSSNYATYYADSVKDRFTISRDDSQSMFYLEMNNLKTEDTAMYYCVRDRGYYYVMDYWGQGTSVTVSS VL: DIVLTQSPASLAVSLGQRATISCRASESVEYYGTSLMQWYQQKPGQPPKLLINAASNVESGVPARFSGSGSGTDFSLNIHPVEEDDIAMYFCQQSRKVPWTFGGGTKLEIK")
7.08
>>> result("KCD040 (antibody, V domains shown, chimeric) VH: EVQLQQSGAELVKPGASVKLSCTASDFNIKDTYMHWVMQRPEQGLEWIGKIDPANGNTEFDPKFQGKATITADTSSNTAYLQLTSLTSEDTAVYYCTRAMDYWGQGTSVTVSS VL: QIVLTQSPAIMSASPGEKVTMTCSAGSSVSYMYWYQQKPGSSPRVLIYDTSNLASGVPVRFSGSGSGTSYSLTISRMEAEDAATYYCQQWSNYPYTFGGGTKLEIK")
6.77

// lookup pKd for KCD077 (antibody, V domains shown) VH: EVQLQQSGAELVRPGALVKLSCKASGFNIKDYYMHWVKQRPEQGLEWIGWIDPENGHTIYDPRFQGKATITADTSSNTAYLQLSSLTSEDTAVYYCSRGLLGFAYWGQGTLVTVSA VL: DIVMTQSQKFMSTSVGDRVSVTCKASQNVGTNVAWYQQKPGQSPKALIYTASYRYSGVPDRFTGSGSGTDFTLTISNVQSEDLAEYFCQQYNSYPHMYTFGGGTKLEIK
7.85

Where do these numbers come from? They come from patent US20180334496A1.
